mortality by entry:
Tested on: Attelabidae
Assay overview: Insecticidal activity against Mechoris ursulus assessed as mortality at 1 mg/paper at 25 +/- 1 degC measured after 48 hr by filter paper diffusion method
Type: functional
Property: mortality (%)

1) O=C/C=C/c1ccccc1 [CINNAMALDEHYDE]: 83.3
2) C=CCc1ccc(O)c(OC)c1 [EUGENOL]: 66.7
3) O=C(O)/C=C/c1ccccc1 [CINNAMIC ACID]: 53.3
4) O=Cc1ccccc1O [SALICYLADEHYDE]: 74.4
